tested on: Pseudomonas aeruginosa; test: In vitro inhibitory activity against Pseudomonas aeruginosa ATCC 27853; assay type: functional
Quantity kind: MIC (µg/mL)
Give bare numbers, in µg/mL.

Here's what some known entries look like.
{"Compound": "NCC1OC(OC2C(N)CC(N)C(OC3OC(CO)C(N)C(N)C3O)C2O)C(N)CC1O (stereo in doubt; form 2)", "MIC, µg/mL": 2}
{"Compound": "NCC1OC(OC2C(N)CC(N)C(OC3OC(CO)C(N)C(O)C3N)C2O)C(N)CC1O (stereo in doubt; form 2)", "MIC, µg/mL": 2}
{"Compound": "NCC1OC(OC2C(N)CC(N)C(OC3OC(CO)C(N)C(O)C3N)C2O)C(N)CC1O (stereo in doubt; form 1)", "MIC, µg/mL": 32}

Record MIC per entry; entries follow.
1. NCC1OC(OC2C(N)CC(N)C(OC3OC(CO)C(O)C(N)C3N)C2O)C(N)CC1O (stereo in doubt; form 1)
2. NCC1OC(OC2C(N)CC(N)C(OC3OCC(O)C(N)C3O)C2O)C(N)CC1O (stereo in doubt; 8u)

Found:
1. 2
2. 2

###

test system: Pseudomonas aeruginosa; test: In vitro inhibitory activity against Pseudomonas aeruginosa ATCC 35151; assay type: functional; conditions: Pseudomonas aeruginosa, ATCC 35151; read-out: MIC
For each entry below, report its MIC value.
One number for each entry, in µg/mL.

{"Compound": "NC[C@H]1O[C@H](O[C@H]2[C@H](O)[C@@H](O[C@H]3O[C@H](CO)[C@@H](O)[C@H](N)[C@H]3O)[C@H](N)C[C@@H]2N)[C@H](N)C[C@@H]1O [TOBRAMYCIN]", "MIC / µg/mL": 0.5}

Lookup: Reported MIC for NCC1OC(OC2C(N)CC(N)C(OC3OC(CO)C(O)C(N)C3N)C2O)C(N)CC1O (stereo in doubt; form 1) : what is it?
Found: 1

###

tested on: Pseudomonas aeruginosa; experiment: In vitro inhibitory activity against Pseudomonas aeruginosa ATCC 35151; type: functional; details: Pseudomonas aeruginosa, ATCC 35151; read-out: MIC
Quantity kind: MIC

Below: 2 molecules and their reported MIC.
{"Molecule": "NCC1OC(OC2C(N)CC(N)C(OC3OC(CN)C(O)C(O)C3N)C2O)C(N)CC1O (centres undefined)", "System under test": "Pseudomonas aeruginosa", "Reported": "16 µg/mL"}
{"Molecule": "NCC1OC(OC2C(N)CC(N)C(OC3OCC(O)C(O)C3O)C2O)C(N)CC1O (centres undefined)", "System under test": "Pseudomonas aeruginosa", "Reported": "> 64 µg/mL"}

I have 2 molecules here; please give me MIC for each one.
1. NC[C@@H]1O[C@H](O[C@H]2[C@H](O)[C@H](O[C@H]3O[C@@H](CO)[C@@H](O)[C@H](O)[C@@H]3O)[C@H](N)C[C@H]2N)[C@@H](N)C[C@@H]1O
2. CC1CC(N(C)C)C(O)C(OC2C(N)CC(N)C(OC3OC(CN)C(O)CC3N)C2O)O1 (centres undefined)

Found:
["16 µg/mL", "32 µg/mL"]

###

test system: Pseudomonas aeruginosa; assay: In vitro inhibitory activity against Pseudomonas aeruginosa ATCC 27853; format: functional
Quantity kind: MIC

{"Compound": "NCC1OC(OC2C(N)CC(N)C(OC3OC(CO)C(N)C(N)C3O)C2O)C(N)CC1O (stereo in doubt; form 1)", "Reported": ">64 µg/mL"}

List reported MIC for each of these compounds:
1. NCC1OC(OC2C(N)CC(N)C(OC3OC(CO)C(O)C(N)C3N)C2O)C(N)CC1O (stereo in doubt; form 2)
2. NCC1OC(OC2C(N)CC(N)C(OC3OCC(O)C(N)C3O)C2O)C(N)CC1O (stereo in doubt; 8v)

Found:
1: >64 µg/mL; 2: >64 µg/mL

The values you see were collected from ChEMBL document CHEMBL1146802.
